Data provenance: the EternaBench riboswitch data

Tested on: MS2 coat protein
Assay: apparent Kd, MS2 coat protein; higher = weaker binding; RNA-MaP array
Conditions: ligand present: flavin mononucleotide; designed as: OFF switch for flavin mononucleotide
Rule: apparent Kd under 200 nM gives false, otherwise true.

residue_sequence=UCCGGUGACCUAGGAUAUCGUUCAACUAACAUGAGGAUCACCCAUGUGGUCUGUUUUAUGCCUGUCGAGAAGGAGGUGGAUAAG target_system="MS2 coat protein" label_value=false

Would you say ACAGACAAGUAGAAGGCAAUGAGGAGUGAAAAUUGAGGAUAUACCAGCAUGAGUGCCUACAUGAGGAUCACCCAUGUGUAGAUU shows apparent Kd at minimum 200 nM?
true

Would you say CAAUGGGAACCAUAUGUUUACAUGAGGAUCACCCAUGUUACAUAGGAUAUCUCGGUUGGGUUCGUAGAGAAGGAUGUAGAGUAG shows apparent Kd at minimum 200 nM?
false

Would you say UAUUUGGGCAAGAAGGCAGGUUACAGCCAGCAUUAUCCACAUGAGGAUCACCCAUGUUCGGCGACUGAGGAUAUUGCCAAACCU shows apparent Kd at minimum 200 nM?
false

Would you say CGAUCUGGCUAAGGAUAUCAAGUGCGCAUGGUUUGACAGCACAUGAGGAUCACCCAUGUAACGCAUGAGAAGGUAGGCACACAG shows apparent Kd at minimum 200 nM?
false

Would you say ACAUAGUAAGGAUAUCUCCUGUUCGAGAAAGAGAGGCAUAAAGAGAAGGUACAUGAGGAUCACCCAUGUGACGA shows apparent Kd at minimum 200 nM?
false

* * *

Can you tell me apparent Kd for the items I'm about to list?
Test system: MS2 coat protein
Assay: apparent Kd, MS2 coat protein; higher = weaker binding; RNA-MaP array
Conditions: designed as: OFF switch for flavin mononucleotide; no ligand
Give bare numbers, in nM.

Here are 2 sequences together with their reported answers.
residue_sequence=ACUCAGUGAGGAUAUAUAGACGAGGAAAAGUGGAAACUUGAAUAGAAGGCACAUGAGGAUCACCCAUGUCGACG measured_endpoint="apparent Kd" reported_measurement=8.5
residue_sequence=AAAACUUCUAAGAAGGUGAUUUGGGCAUAUCGUCGUUUUACAUGAGGAUCACCCAUGUUUAACGUCAAGGAUAUUAGGGAUUCC measured_endpoint="apparent Kd" reported_measurement=6.11

Fill in apparent Kd for each of the 2 sequences listed.
1. CCACGACUAGGAUAUACCUAUGUUCACUCGUGAUCAAGGACACAUGAGGAUCACCCAUGUAGAAGGAGUCGCUA
2. CGAUCUGGCUAAGGAUAUCAAGUGCGCAUGGUUUGACAGCACAUGAGGAUCACCCAUGUAACGCAUGAGAAGGUAGGCACACAG

1: 8.84; 2: 223

* * *

System: MS2 coat protein
Assay: apparent Kd, MS2 coat protein; higher = weaker binding; RNA-MaP array; tryptophan 2.4 mM where present
Settings: designed as: OFF switch for tryptophan; no ligand
Rule: apparent Kd under 20 nM gives n, otherwise y.

Some entries whose results are on file:
residue_sequence=ACCUGCGUUUGUUUCUUUCUGACGCAGGUUCGAGGACCGGUACGGCCGCCACUCGGACAUGAGGAUCACCCAUGUUUGACAUGGG label_value=y
residue_sequence=CCUAUGCAGUCGGCCGCCACUGAACAUGAGGAUCACCCAUGUAAUUAAAAUUAAGGUCCUAAAAUCAGGACCGGGACUGUAUAGG label_value=y
residue_sequence=GAUAUACGUGCGGCCGCCACUGAGUGGCGGGCGUGUCGAGUUACAUGAGGAUCACCCAUGUCACUCAGGACCGGGCACGGAAUUU label_value=n
residue_sequence=AACAUGAGGAUCACCCAUGUGUCCUCGAAACGAGGACCGGUACGGCCGCCACUCGGCGUAUGUUGACGAAAAGUCAGCAUACGCA label_value=y

Would you say GGCAAAAGGUCGGCCGCCACUGUAGGAUGUGUUCUUUCACAUGAGGAUCACCCAUGUUGUUAUUAUAGGACCGGGAUUUUAGGAC shows apparent Kd at minimum 20 nM?
y

Would you say GGUGGACUUUCGGCCGCCACUGAGAGAGUCGUGUGAACAUGAGGAUCACCCAUGUAAUAUAUAUACAGGACCGGGAGGGUUGUCC shows apparent Kd at minimum 20 nM?
n

Would you say GCUGCAGCUACGGCCGCCACUGUUACGUGAGACAUGAGGAUCACCCAUGUUGAUGUUUUACGGUAUAGGACCGGGUAGUUGUAGU shows apparent Kd at minimum 20 nM?
n

Would you say AGCACUGUGACGGCCGCCACUACAUAACAUGGGUGGUCAGGUUCAUUACAUGAGGAUCACCCAUGUAGGACCGGGUCUCAGUGCA shows apparent Kd at minimum 20 nM?
n
